# assayed.target: UMPKmt (uridine monophosphate kinase, Rv2883c) (Mycobacterium tuberculosis)
# protocol.summary: coupled spectrophotometric kinase assay
# Assay type: biochemical
# Sequence (P9WHK5 whole entry, looked up): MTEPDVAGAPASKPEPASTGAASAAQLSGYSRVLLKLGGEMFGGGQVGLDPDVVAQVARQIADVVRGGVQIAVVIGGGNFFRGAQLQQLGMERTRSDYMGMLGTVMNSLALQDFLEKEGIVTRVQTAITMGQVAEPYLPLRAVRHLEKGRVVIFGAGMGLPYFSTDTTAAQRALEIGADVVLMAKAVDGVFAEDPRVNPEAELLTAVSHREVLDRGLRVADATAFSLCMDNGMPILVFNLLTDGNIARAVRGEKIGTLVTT
Would you kindly list pIC50 for each of these compounds?
One number for each entry, as −log10 of the molar value.

Please give pIC50 for each item listed below.
1. Cc1cn([C@H]2C[C@H](O)[C@@H](COP(=O)(O)OP(=O)(O)OP(=O)(O)O)O2)c(=O)[nH]c1=O [dTTP]
2. O=c1[nH]c(=O)n([C@@H]2O[C@H](COP(=O)(O)OP(=O)(O)OP(=O)(O)O)[C@@H](O)[C@H]2O)cc1Br [5Br-UTP]
3. O=c1ccn([C@H]2C[C@H](O)[C@@H](COP(=O)(O)OP(=O)(O)OP(=O)(O)O)O2)c(=O)[nH]1 [dUTP]

[3.40, 4.00, 3.62]

Return the recorded pIC50 value; entry: O=c1[nH]c(=O)n([C@@H]2O[C@H](COP(=O)(O)OP(=O)(O)OP(=O)(O)O)[C@@H](O)[C@H]2O)cc1I [5I-UTP]
4.70

---

# assayed.target: UMPKmt (uridine monophosphate kinase, Rv2883c) (Mycobacterium tuberculosis)
# protocol.summary: X-ray crystal structure
# Format: biochemical
# Sequence (P9WHK5 whole entry): as the sequence (P9WHK5 whole entry, looked up) above
attribute.measured: EC50 (µM)
Numbers only, in µM.

Return the recorded EC50 value; entry: Nc1nc2c(ncn2[C@@H]2O[C@H](COP(=O)(O)OP(=O)(O)OP(=O)(O)O)[C@@H](O)[C@H]2O)c(=O)[nH]1 [GTP]
100

This collection of values is drawn from paper PMC3082897.
